study_target: Mitogen-activated protein kinase 14 (Homo sapiens, UniProt Q16539)
Sequence (Q16539 whole entry): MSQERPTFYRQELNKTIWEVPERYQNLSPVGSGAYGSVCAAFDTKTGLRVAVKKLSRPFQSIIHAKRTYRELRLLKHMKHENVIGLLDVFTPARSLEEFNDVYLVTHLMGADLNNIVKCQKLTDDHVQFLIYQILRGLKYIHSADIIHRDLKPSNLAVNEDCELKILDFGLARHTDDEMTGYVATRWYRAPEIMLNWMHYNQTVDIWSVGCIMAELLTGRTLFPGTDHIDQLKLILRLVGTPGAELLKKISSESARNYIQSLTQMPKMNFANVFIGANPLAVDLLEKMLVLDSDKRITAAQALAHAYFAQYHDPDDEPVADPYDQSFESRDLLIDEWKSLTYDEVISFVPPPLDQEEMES
assay_remarks: Inhibition of LPS-stimulated TNFalpha production in human THP1 cells
Assay type: functional, cell-based, THP-1

[
  {
    "compound": "COCC(C)Nc1nccc(N(N)C(=O)Nc2ccccc2Cl)n1 (single isomer, unassigned)",
    "inequality_sign": ">",
    "IC50 [µM]": 5
  },
  {
    "compound": "COC[C@H](C)Nc1nccc(N(C(=O)Nc2ccccc2C)c2ccccc2)n1",
    "inequality_sign": "=",
    "IC50 [µM]": 1
  },
  {
    "compound": "COC[C@H](C)Nc1nccc(N(C(=O)Nc2ccccc2Cl)c2ccc(N(C)C)cc2)n1",
    "inequality_sign": ">",
    "IC50 [µM]": 5
  },
  {
    "compound": "CN1CCN(c2nccc(N(C(=O)Nc3ccccc3Cl)c3ccc(F)cc3)n2)CC1",
    "inequality_sign": ">",
    "IC50 [µM]": 5
  },
  {
    "compound": "CCCS(=O)(=O)N1CCC(Nc2nccc(N(C(=O)Nc3ccccc3Cl)c3ccc(F)cc3)n2)CC1",
    "inequality_sign": "=",
    "IC50 [µM]": 1.42
  },
  {
    "compound": "C[C@H](Nc1nccc(N(C(=O)Nc2ccccc2Cl)c2ccc(F)cc2)n1)c1ccccc1 (stereo in doubt; 5i)",
    "inequality_sign": ">",
    "IC50 [µM]": 5
  },
  {
    "compound": "C[C@H](Nc1nccc(N(C(=O)Nc2ccccc2Cl)c2ccc(F)cc2)n1)c1ccccc1 (stereo in doubt; 5h)",
    "inequality_sign": "=",
    "IC50 [µM]": 0.843
  },
  {
    "compound": "COC[C@H](C)Nc1nccc(N(C)C(=O)Nc2ccccc2C)n1",
    "inequality_sign": ">",
    "IC50 [µM]": 5
  },
  {
    "compound": "CCOC(=O)N1CCC(Nc2nccc(N(C(=O)Nc3ccccc3Cl)c3ccc(F)cc3)n2)CC1",
    "inequality_sign": "=",
    "IC50 [µM]": 3.61
  }
]
